Please go through the items and note down their Selectivity.
target: pre-pro-human insulin
Give just the numeric value; % need not be written.

Return Selectivity for the following protein: porcine trypsin variant S172A (SEQ ID NO: 2) (protein) IVGGYTCAANSIPYQVSLNSGSHFCGGSLINSQWVVSAAHCYKSRIQVRLGEHNIDVLEGNEQFINAAKIITHPNFNGNTLDNDIMLIKLSSPATLNSRVATVSLPRSCAAAGTECLISGWGNTKSSGSSYPSLLQCLKAPVLSDSSCKSSYPGQITGNMICVGFLEGGKDACQGDSGGPVVCNGQLQGIVSWGYGCAQKNKPGVYTKVCNYVNWIQQTIAAN
62.1

Return Selectivity for the following protein: trypsin variant SEQ ID NO: 129 (protein) IVGGYTCAANSIPYQVSLNSGSHRCGGSLINSQWVVSAAHCYKSRIQVRLGEHNIDVLEGNEQFINAAKIITHPNFNGNTLDNDIMLIKLSSPATLNSRVATVSLPRSCAAAGTECLISGWGNTKSSGSSYPSLLQCLKAPVLSDSSCKSSYPGQITGNMICVGFLEGGKDACQGDSGGPVVCNGQLQGIVSNGYGCAQKNKPGVYTKVCNYVNWIQQTIAAN
44.8
